# Study Target: UniProt A3KMY8
# Sequence (A3KMY8 whole entry): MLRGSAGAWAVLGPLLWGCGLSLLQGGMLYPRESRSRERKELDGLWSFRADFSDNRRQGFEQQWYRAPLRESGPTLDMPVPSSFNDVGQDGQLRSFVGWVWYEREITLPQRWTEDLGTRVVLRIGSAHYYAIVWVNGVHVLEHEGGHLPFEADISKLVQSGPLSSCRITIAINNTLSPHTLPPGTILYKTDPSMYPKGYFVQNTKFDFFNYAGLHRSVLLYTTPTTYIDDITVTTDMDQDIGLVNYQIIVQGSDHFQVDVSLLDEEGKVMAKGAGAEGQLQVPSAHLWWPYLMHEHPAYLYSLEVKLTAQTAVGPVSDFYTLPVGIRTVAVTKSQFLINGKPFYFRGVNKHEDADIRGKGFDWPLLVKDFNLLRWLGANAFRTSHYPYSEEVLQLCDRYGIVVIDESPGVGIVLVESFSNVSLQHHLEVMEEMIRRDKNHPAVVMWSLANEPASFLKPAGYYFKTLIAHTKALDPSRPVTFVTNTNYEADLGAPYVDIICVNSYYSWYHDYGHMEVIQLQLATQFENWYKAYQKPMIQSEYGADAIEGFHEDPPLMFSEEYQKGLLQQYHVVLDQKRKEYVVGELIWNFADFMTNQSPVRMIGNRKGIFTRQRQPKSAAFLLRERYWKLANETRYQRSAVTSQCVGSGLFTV
# Procedure Summary: Inhibition of bovine liver beta-glucuronidase assessed as p-nitrophenol formation preincubated for 30 mins followed by p-nitrophenyl-beta-D-glucuronide addition by spectrophotometric method
# Applied Conditions: read-out: IC50
I'd be grateful if you could share measured IC50 for these entries.
Answers are plain numbers, in µM.

>  <Compound>
COC(=O)C1=C(C)NC(=O)NC1c1ccc(C)o1 (stereo unspecified)

>  <IC50 [µM]>
44.2

$$$$
>  <Compound>
COC(=O)C1=C(C)NC(=O)NC1c1cccc(OC)c1OC (stereo unspecified)

>  <IC50 [µM]>
54.2

$$$$
>  <Compound>
COC(=O)C1=C(C)NC(=O)NC1c1ccc(C)s1 (stereo unspecified)

>  <IC50 [µM]>
33.1

$$$$
>  <Compound>
COC(=O)C1=C(C)NC(=O)NC1c1cccc2ccccc12 (stereo unspecified)

>  <IC50 [µM]>
48.2

$$$$
>  <Compound>
COC(=O)C1=C(C)NC(=O)NC1c1ccccc1F (stereo unspecified)

>  <IC50 [µM]>
14.1

$$$$

Please look at the following compound next.
query: # assay system UniProt A3KMY8: give IC50 of COC(=O)C1=C(C)NC(=O)NC1c1ccc(C(F)(F)F)cc1 (stereo unspecified)
result: 9.38
